Target: T1, RSV F protein (C-terminal truncated F protein secreted from a recombinant baculovirus) (respiratory syncytial virus (RSV), UniProt P03420 26-524)
T1 construct: also called F antigen; RSV F antigen
T1 sequence (P03420 26-109, chain 1 of 2): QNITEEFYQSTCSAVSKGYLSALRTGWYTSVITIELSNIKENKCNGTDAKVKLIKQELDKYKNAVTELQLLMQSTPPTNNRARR
T1 sequence (P03420 137-524, chain 2 of 2): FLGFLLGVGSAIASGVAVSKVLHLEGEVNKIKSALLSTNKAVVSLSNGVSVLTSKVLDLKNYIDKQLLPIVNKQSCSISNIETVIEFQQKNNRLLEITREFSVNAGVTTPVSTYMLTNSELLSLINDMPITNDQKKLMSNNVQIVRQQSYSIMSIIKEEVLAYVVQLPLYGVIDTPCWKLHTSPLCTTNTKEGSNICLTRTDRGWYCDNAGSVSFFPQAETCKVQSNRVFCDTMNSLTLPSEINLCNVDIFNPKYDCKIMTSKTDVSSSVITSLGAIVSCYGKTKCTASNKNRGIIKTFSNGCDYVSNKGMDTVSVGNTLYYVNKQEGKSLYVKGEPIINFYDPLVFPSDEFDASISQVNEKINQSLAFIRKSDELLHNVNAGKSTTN
Assay: SPR (BIAcore), from the kinetic constants of Table 4
pKd: −log10 of the molar value.

BINDER	pKd
clone 2 (AFFG) (Fab, V domains shown) VH: QVTLRESGPALVKPTQTLTLTCTFSGFSLSTAGMSVGWIRQPPGKALEWLADIWWDDKKDYNPSLKSRLTISKDTSKNQVVLKVTNMDPADTATYYCARSMITNFYFDVWGQGTTVTVSS VL: DIQMTQSPSTLSASVGDRVTITCSASSSVGYMHWYQQKPGKAPKLLIYDTFKLASGVPSRFSGSGSGTEFTLTISSLQPDDFATYYCFQGSGYPFTFGGGTKVEIK	~10.86
